experiment: Cytotoxicity against human THLE-3 cells assessed as reduction in cell viability measured after 48 hrs by AlamarBlue assay; type: cell-based; conditions: THLE-3 cells
Can you tell me CC50 at 48 h for the items I'm about to list?
Give bare numbers, in µM.

For every item in the list below, what is its measured CC50 at 48 h?
1. O=S(=O)(Nc1ccc(-c2nc3cc(NS(=O)(=O)c4ccc(Cl)s4)ccc3o2)cc1)c1ccc(Cl)c(C(F)(F)F)c1
2. COc1ccc(S(=O)(=O)Nc2ccc(-c3nc4cc(NS(=O)(=O)c5ccc(OC)cc5)ccc4o3)cc2)cc1
3. Cc1ccc(S(=O)(=O)Nc2ccc(-c3nc4cc(NS(=O)(=O)c5ccc(C)cc5)ccc4o3)cc2)cc1
4. Nc1ccc(S(=O)(=O)Nc2ccc(-c3nc4cc(NS(=O)(=O)c5ccc(N)cc5)ccc4o3)cc2)cc1

Reply:
[21, 60, 15, 39]

Please report CC50 at 48 h for every entry that follows.
1. O=S(=O)(Nc1ccc(-c2nc3cc(NS(=O)(=O)c4cccc(C(F)(F)F)c4)ccc3o2)cc1)c1cccc(C(F)(F)F)c1
2. O=S(=O)(Nc1ccc(-c2nc3cc(NS(=O)(=O)c4ccc(C(F)(F)F)cc4)ccc3o2)cc1)c1ccc(C(F)(F)F)cc1

Reply:
1: 24; 2: 21
